Attribution: the RNAGym collection of RNA variant scans (doi:10.7554/elife.80360)

B1: HDV Ribozyme (parent)
chain: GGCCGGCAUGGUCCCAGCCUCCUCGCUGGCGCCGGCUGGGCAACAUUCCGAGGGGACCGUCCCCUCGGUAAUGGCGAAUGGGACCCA

variants of: B1; test: self-cleavage, relative activity (ratio to wild type); higher = more cleavage; co-transcriptional
Binary classification by self-cleavage, with 0.3 as an inclusive lower bound for TRUE; all other cases are FALSE.

>>> df
    variant_code  assigned_label
 0     G52C C63A            TRUE
 1      G2A C19A           FALSE
 2     U65G G68U            TRUE
 3     U12C G68C           FALSE
 4     C66G G80A            TRUE
 5     G50C C85U            TRUE
 6      U9C G39U            TRUE
 7     U37G G52C           FALSE
 8     C21A A77C           FALSE
 9       G2U C3U           FALSE
10     C57G U72G            TRUE
11     C22U G28U           FALSE
12      G6C C33U           FALSE
13     G39U U69C            TRUE
14     U79G G81C           FALSE
15     C58A G80A            TRUE
16     C32U G34C           FALSE
17      C4A C30G           FALSE
18     U23C G76A            TRUE
19     G38C C44A           FALSE
20     G28U G52A           FALSE
21     U12C G50C            TRUE
22     U60C A87C            TRUE
23     A56G U72A            TRUE
24     C41G C63A            TRUE
25     A16U U46G            TRUE
26     C64U C86A            TRUE
27     U46C G73U           FALSE
28     G34A C66A           FALSE
29     C22A U72C           FALSE
30     U65A C86G            TRUE
31     A42U G74A            TRUE
32      C3A G59A            TRUE
33          G29A           FALSE
34     G17A A42G           FALSE
35     G38A C44U           FALSE
36     C18G U37G           FALSE
37      U9A U65C            TRUE
38      G1A G81U           FALSE
39     C49G C63G            TRUE
40     U65G A70C            TRUE
41          C24U            TRUE
42     A45U C64G            TRUE
43     G52C C62U            TRUE
44     A43G C57G            TRUE
45          A78G            TRUE
